As shown below, each of these binders has a reported Kd value.
Molecular target: T1, PUF4 RNA-binding domain (Saccharomyces cerevisiae, UniProt P25339 537-888)
T1 sequence: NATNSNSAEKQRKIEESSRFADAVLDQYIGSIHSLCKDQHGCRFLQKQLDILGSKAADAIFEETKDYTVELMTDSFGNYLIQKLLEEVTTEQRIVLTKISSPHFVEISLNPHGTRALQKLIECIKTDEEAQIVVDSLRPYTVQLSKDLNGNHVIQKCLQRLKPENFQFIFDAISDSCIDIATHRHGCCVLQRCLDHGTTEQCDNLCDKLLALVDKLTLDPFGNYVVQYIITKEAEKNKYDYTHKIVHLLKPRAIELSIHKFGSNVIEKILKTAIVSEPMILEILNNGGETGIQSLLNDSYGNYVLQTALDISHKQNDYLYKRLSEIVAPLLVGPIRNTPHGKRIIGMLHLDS
Assay: Mg; RNA-MaP; 20 mM Na-HEPES pH 7.4, 30 mM KOAc, 0.75 mM MgCl2, 0.1% Tween-20, 5% glycerol, 0.1 mg/mL BSA, 2 mM DTT; 25 C; 0.0125-409.6 nM protein
Details: tags: N-His6-TEV cleaved; C-SNAP kept, Cy3B-labelled; label: tethered on chip by stalled RNA polymerase
Property: Kd

| Binder | Observed measurement |
| --- | --- |
| UCUCUUUGCGUAUAUCUCUU (ssRNA) [Ib_S1_P3E.1_K3.1_C3.1_H3.1_[T3C]_[A4G]_A3.1_F3.1_T3.1] | > 2.3 µM |
| Id_ii_S2_P5E.4_K5.3_C5.2_H5.3_A5.1_F5.1_T5.2_[T11G]_[A12C] (ssRNA) RNA: UUUGAUUAAUAUGAUAUCGUUCUUUCUCUACACUUAUUAGCUUCUUUCUCGAUAUCAUAUUAAUCUUU | > 2.3 µM |
| UCUCUUCCACACUAUAGCUCUCUU (ssRNA) [Id_ii_S1_P3E.4_K3.3_C3.2_[T-1C]_H3.3_A3.1_F3.1_T3.2_[T9G]_[A10C]] | > 2.3 µM |
